Values compiled from patent US20090325959A1.

# studyTarget: Akt3 human enzyme (Homo sapiens, UniProt Q9Y243)
# Construct: purchased Upstate Chemicon 14-502
# Sequence (Q9Y243 whole entry): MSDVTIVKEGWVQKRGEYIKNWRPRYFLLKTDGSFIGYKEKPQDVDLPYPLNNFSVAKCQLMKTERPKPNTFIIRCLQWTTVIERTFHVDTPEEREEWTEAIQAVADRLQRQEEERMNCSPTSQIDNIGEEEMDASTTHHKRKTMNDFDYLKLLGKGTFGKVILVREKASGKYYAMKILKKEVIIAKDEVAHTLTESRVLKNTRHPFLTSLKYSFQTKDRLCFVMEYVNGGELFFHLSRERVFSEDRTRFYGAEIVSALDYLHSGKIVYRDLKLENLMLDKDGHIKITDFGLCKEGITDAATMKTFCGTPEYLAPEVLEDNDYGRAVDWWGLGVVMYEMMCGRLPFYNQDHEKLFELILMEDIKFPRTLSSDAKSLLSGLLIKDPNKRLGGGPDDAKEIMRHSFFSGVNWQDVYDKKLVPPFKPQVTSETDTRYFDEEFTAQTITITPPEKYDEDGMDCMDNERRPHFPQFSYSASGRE
# runDescription: Akt3 inhibition assay (IMAP FP);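 note: kinase reaction run 60 min at room temperature after 30 µM ATP start, phosphorylated substrate captured on IMAP beads and read as fluorescence polarization (mP)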
# Assay type: biochemical
# conditionContext: 30 μM ATP; Ki=IC50/(1+([ATP Challenge]/EC50 ATP)); read-out: Akt3 Ki, Avg
pKi: −log10 of the molar value.
endpointLabel: pKi

[[record]]
compound = "NC(=O)Cn1ccc2ccc(CN3CC[C@@H](Nc4cccc5cnccc45)C3)cc21"
endpointlabel = "pKi"
measuredvalue = 5.71

[[record]]
compound = "CS(=O)(=O)Nc1cccc(CN2CC[C@@H](Nc3cccc4cnccc34)C2)c1"
endpointlabel = "pKi"
measuredvalue = 5.59

[[record]]
compound = "Cc1cccc(CN2CCC[C@H](Nc3ccc4[nH]ncc4c3)C2)c1C"
endpointlabel = "pKi"
measuredvalue = 5.06

[[record]]
compound = "Fc1ccc(CN2CCC[C@H](Nc3ccc4[nH]ncc4c3)C2)cc1F"
endpointlabel = "pKi"
measuredvalue = 5.32

[[record]]
compound = "Oc1cccc(CN2CCC[C@@H](Nc3ccc4[nH]ncc4c3)C2)c1"
endpointlabel = "pKi"
measuredvalue = 5.92

[[record]]
compound = "Cc1ccc(CN2CC[C@@H](Nc3cccc4cnccc34)C2)cc1"
endpointlabel = "pKi"
measuredvalue = 6.01

[[record]]
compound = "NC(=O)c1cccc(CN2CCC[C@H](Nc3ccc4[nH]ncc4c3)C2)c1"
endpointlabel = "pKi"
measuredvalue = 4.42

[[record]]
compound = "c1ccc(CN2CC[C@@H](Nc3cccc4cnccc34)C2)cc1"
endpointlabel = "pKi"
measuredvalue = 5.70

[[record]]
compound = "c1cc2cc(CN3CCC[C@@H](Nc4ccc5[nH]ncc5c4)C3)ccc2s1"
endpointlabel = "pKi"
measuredvalue = 7.04

[[record]]
compound = "COc1ccc(CN2CCC[C@@H](Nc3ccc4[nH]ncc4c3)C2)cc1"
endpointlabel = "pKi"
measuredvalue = 6.27

[[record]]
compound = "Oc1cccc(CN2CCC[C@H](Nc3ccc4[nH]ncc4c3)C2)c1"
endpointlabel = "pKi"
measuredvalue = 5.35

[[record]]
compound = "Cc1ccc(S(=O)(=O)Nc2cc(CN3CCC[C@H](Nc4ccc5[nH]ncc5c4)C3)ccc2C)cc1"
endpointlabel = "pKi"
measuredvalue = 4.75

[[record]]
compound = "NC(=O)Cn1ccc2cc(CN3CC[C@@H](Nc4cccc5cnccc45)C3)ccc21"
endpointlabel = "pKi"
measuredvalue = 6.92

[[record]]
compound = "C#Cc1ccc(CN2CCC[C@H](Nc3ccc4[nH]ncc4c3)C2)cc1"
endpointlabel = "pKi"
measuredvalue = 5.28

[[record]]
compound = "c1cc(N[C@@H]2CCN(Cc3ccc4occc4c3)C2)c2ccncc2c1"
endpointlabel = "pKi"
measuredvalue = 6.01

[[record]]
compound = "c1cc(C2CC2)ccc1CN1CCC[C@H](Nc2ccc3[nH]ncc3c2)C1"
endpointlabel = "pKi"
measuredvalue = 5.38

[[record]]
compound = "c1cc(CN2CCC[C@H](Nc3ccc4[nH]ncc4c3)C2)cc(C2CC2)c1"
endpointlabel = "pKi"
measuredvalue = 4.99

[[record]]
compound = "OCCN1CCc2ccc(CN3CCC[C@H](Nc4ccc5[nH]ncc5c4)C3)cc21"
endpointlabel = "pKi"
measuredvalue = 4.99

[[record]]
compound = "Cc1ccc(CN2CCC[C@H](Nc3ccc4[nH]ncc4c3)C2)cc1"
endpointlabel = "pKi"
measuredvalue = 5.49

[[record]]
compound = "OCc1ccc(CN2CCC[C@H](Nc3ccc4[nH]ncc4c3)C2)cc1"
endpointlabel = "pKi"
measuredvalue = 4.95

[[record]]
compound = "CC(C)c1ccc(CN2CCC[C@H](Nc3ccc4[nH]ncc4c3)C2)cc1"
endpointlabel = "pKi"
measuredvalue = 4.92

[[record]]
compound = "FC(F)(F)c1ccc(CN2CCC[C@@H](Nc3ccc4[nH]ncc4c3)C2)cc1"
endpointlabel = "pKi"
measuredvalue = 6.15

[[record]]
compound = "c1ccc(CN2CCC[C@@H](Nc3ccc4[nH]ncc4c3)C2)cc1"
endpointlabel = "pKi"
measuredvalue = 6.33

[[record]]
compound = "NC(=O)Cn1ccc2ccc(CN3CCC[C@H](Nc4ccc5[nH]ncc5c4)C3)cc21"
endpointlabel = "pKi"
measuredvalue = 4.79

[[record]]
compound = "Cc1ccc(CN2CCC[C@@H](Nc3ccc4[nH]ncc4c3)C2)c(C)c1"
endpointlabel = "pKi"
measuredvalue = 6.70

[[record]]
compound = "C#Cc1ccc(CN2CC[C@@H](Nc3cccc4cnccc34)C2)cc1"
endpointlabel = "pKi"
measuredvalue = 5.87

[[record]]
compound = "CCc1ccc(CN2CCC[C@@H](Nc3ccc4[nH]ncc4c3)C2)cc1"
endpointlabel = "pKi"
measuredvalue = 6.54

[[record]]
compound = "FC(F)(F)c1ccc(CN2CCC[C@H](Nc3ccc4[nH]ncc4c3)C2)cc1"
endpointlabel = "pKi"
measuredvalue = 5.08

[[record]]
compound = "CC(C)c1ccc(CN2CCC[C@@H](Nc3ccc4[nH]ncc4c3)C2)cc1"
endpointlabel = "pKi"
measuredvalue = 5.72

[[record]]
compound = "OCCn1ccc2cc(CN3CC[C@@H](Nc4cccc5cnccc45)C3)ccc21"
endpointlabel = "pKi"
measuredvalue = 5.60

[[record]]
compound = "CCCCS(=O)(=O)Nc1cc(CN2CCC[C@H](Nc3ccc4[nH]ncc4c3)C2)ccc1C"
endpointlabel = "pKi"
measuredvalue = 5.43

[[record]]
compound = "CS(=O)(=O)Nc1cccc(CN2CCCC(Nc3ccc4[nH]ncc4c3)C2)c1 (stereo in doubt)"
endpointlabel = "pKi"
measuredvalue = 5.27

[[record]]
compound = "CS(=O)(=O)Cc1cccc(CN2CCC[C@H](Nc3ccc4[nH]ncc4c3)C2)c1"
endpointlabel = "pKi"
measuredvalue = 4.53

[[record]]
compound = "NS(=O)(=O)c1cccc(CN2CCC[C@H](Nc3ccc4[nH]ncc4c3)C2)c1"
endpointlabel = "pKi"
measuredvalue = 4.83

